Where do the numbers come from? From the supplement of paper PMC9170038.

Tested on: MS2 coat protein
ASSAY REMARKS: apparent KD of MS2 coat protein; designed switch direction (-1 OFF switch, 1 ON switch): 1; higher = weaker reporter binding
RUN CONDITIONS: Eterna round: R95; input ligand: FMN 200 uM
QUANTITY NAME: apparent KD of MS2 coat protein (nM)
One number for each entry, in nM.

Report apparent KD of MS2 coat protein for every entry below.
1. GAAAAGGCAACGCAGGAUAUGAAAGGUGAAACAUGAGGAUCACCCAUGUGCUACCUUCCGAUAAAUCAGAAGGGCGACGCCAAAA [Leceave] (puzzle: Same State 2)
2. UCUAGACAUGAGGAUCACCCAUGUCAAUAUGACACAGGAUAUCGGUACUCAUAGAGUACGCGAGAAGGGUGACUUC [Same State 1 - Mod of Vinnie Gere v.4] (puzzle: Same State 1)
3. AGUGAACAUGAGGAUCACCCAUGUGAGAGAAGUGUAGGAUAUGUGAGGAGCAGAGGAGGGACAGAAGGACAUGGAG [JR_SS!_Sub074] (puzzle: Same State 1)

-- reply
[15.4, 137, 32.1]

Report apparent KD of MS2 coat protein for every entry below.
1. AACAAUCUAUCUGAGGAUAUCAUGAAUAAAACAUGAGGAUCACCCAUGUGCAGGAAAACUGCAUAUGAGAAGGCAGAUAGAUUGU [Mat - Same State 2 - Mod - D11] (puzzle: Same State 2)
2. GGUGAGAGAGUCUAGGAUAUGAAAGGAGAGACAUGAGGAUCACCCAUGUAAGAGAGAGAGGAGAGUUAGAAGGAGAAGAGAGUGG [Altered State 2-23 - Jieux - Same State 2] (puzzle: Same State 2)

-- reply
69.3
26.8
